procedure text: qHTS for Inhibitors of human tyrosyl-DNA phosphodiesterase 1 (TDP1): qHTS in cells in absence of CPT; also: nearly all actives have a fitted effect of over 55% in size; also: potency is read from the fitted curve at half-maximal effect
measurement context: DT40 Tdp1-/- hTDP1 cells, no CPT, ATP luminescence, 48 h
Screen size: about 420,000 compounds; about 64,000 (15%) were called active. Inconclusive results (about 27%) are left out. These entries were drawn from the full list.
result type: Potency

Use the examples below as a reference point.
compound=CCCCc1nnc(NC(=O)CS(=O)(=O)Cc2ccccc2)s1 result_type=Potency experimental_value=inactive
compound="CCn1cc(CN2CCCC(CNS(=O)(=O)Cc3ccccc3)C2)cn1 (stereo unspecified)" result_type=Potency experimental_value=inactive
compound=COc1cccc(CN2CCC3(CC2)c2ccccc2[C@@H](NC(=O)c2ccccc2OC)[C@@H]3O)c1 result_type=Potency experimental_value="16.4 µM (active)"
compound=COc1ccc(CC(=O)Nc2ccc(-c3nnc(-c4ccc(C)cc4)o3)cc2)cc1 result_type=Potency experimental_value=inactive

The recorded Potency for "CO[C@H]1[C@H](NC(=O)C(C)C)c2ccccc2C12CCN(Cc1cnc(N(C)C)s1)CC2" is inactive

Given item "COc1ccc(C2=NO[C@@H]3C(=O)N(Cc4ccccc4)C(=O)[C@H]23)cc1OC" , the value recorded as its Potency is inactive

Noted for CCOc1cc(C(C(=O)NCC2CCCO2)N(C(=O)Cn2nnc3ccccc32)c2cccc(OC)c2)ccc1O (stereo unspecified) : its Potency reads inactive

Documented Potency of "COCCNC(=O)c1snc2ccc(Cl)cc12" : inactive

In plain terms, "COc1ccc(-c2c(C)cc3oc(=O)cc(-c4ccccc4)c3c2C)cc1OC" has a documented Potency of 23.1 µM (active)

Note to self: Potency recorded for "COCCSc1nnc(NC(=O)CCS(=O)(=O)Cc2ccccc2)s1" was inactive

// sample "CC(=O)N1N=C(c2ccncc2)OC1(Cc1ccccc1)Cc1ccccc1" , its Potency was 8.2 µM (active)

The compound identified as "COc1ccc(-n2nc3c(N4CCC(C(=O)NCc5ccccc5)CC4)nnc(C)c3c2C)cc1" registered its Potency at inactive
